Below: a set of entries, each annotated with reported IC50.
- system.tested: human Yes1 enzyme (Homo sapiens, UniProt P07947)
- Construct: made in house
- Sequence (P07947 whole entry): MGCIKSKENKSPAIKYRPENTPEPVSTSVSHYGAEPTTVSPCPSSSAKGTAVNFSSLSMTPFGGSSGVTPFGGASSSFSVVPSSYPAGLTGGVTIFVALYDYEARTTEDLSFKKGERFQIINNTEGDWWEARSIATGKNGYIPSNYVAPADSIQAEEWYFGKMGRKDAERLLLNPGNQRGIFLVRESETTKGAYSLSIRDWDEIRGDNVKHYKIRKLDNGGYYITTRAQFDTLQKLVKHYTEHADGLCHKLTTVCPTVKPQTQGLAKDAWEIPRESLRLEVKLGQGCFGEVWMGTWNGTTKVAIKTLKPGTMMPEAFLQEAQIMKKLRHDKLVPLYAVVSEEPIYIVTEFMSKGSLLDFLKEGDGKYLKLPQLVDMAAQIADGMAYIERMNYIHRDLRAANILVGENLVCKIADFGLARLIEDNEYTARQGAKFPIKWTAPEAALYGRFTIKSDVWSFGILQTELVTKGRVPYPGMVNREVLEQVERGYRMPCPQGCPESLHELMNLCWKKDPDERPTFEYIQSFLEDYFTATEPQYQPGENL
- experiment.summary: Yes1 enzyme inhibitory activity (time-resolved fluorometry, biotinylated peptide phosphorylation)
- Format: biochemical
- study.conditions: read-out: YES_IC50

[
  {
    "molecule": "Cc1cc2cc(C(=O)c3cnn(-c4ccc(Oc5ccccc5F)c(C)c4)c3N)[nH]c2cc1NS(C)(=O)=O [Example 5-1-307]",
    "value.unit": "nM",
    "IC50": 26
  },
  {
    "molecule": "CCc1cc2cc(C(=O)c3cnn(-c4cnc(Oc5c(F)cccc5F)cc4C)c3N)[nH]c2cc1NS(C)(=O)=O [Example 5-1-141]",
    "value.unit": "nM",
    "IC50": 2.4
  },
  {
    "molecule": "Cc1cc(Oc2c(F)cccc2F)ncc1-n1ncc(C(=O)c2cc3cc(OCC(F)F)c(NS(=O)(=O)c4cccc(C#N)c4)cc3[nH]2)c1N [Example 5-1-382]",
    "value.unit": "nM",
    "IC50": 2.5
  },
  {
    "molecule": "Cc1cc(-n2ncc(C(=O)c3cc4cc(OC5CCN(C6CS(=O)(=O)C6)CC5)c(-c5ccccc5C(F)(F)F)cc4[nH]3)c2N)ccc1Oc1ccccc1F [Example 5-1-386]",
    "value.unit": "nM",
    "IC50": 3.9
  },
  {
    "molecule": "Cc1cc(-n2ncc(C(=O)c3cc4cc(OC5CCN(C6CCC6)CC5)c(NS(C)(=O)=O)cc4[nH]3)c2N)ccc1Oc1ccccc1F [Example 5-1-231]",
    "value.unit": "nM",
    "IC50": 1.7
  }
]
